- Tested On: T1, human IL-12 (human, UniProt P29459 23-219; P29460 23-328)
- T1 construct: recombinant human IL-12 heterodimer (p35/p40, disulfide-linked); also called hIL-12; rhIL-12
- T1 sequence (looked up) 1: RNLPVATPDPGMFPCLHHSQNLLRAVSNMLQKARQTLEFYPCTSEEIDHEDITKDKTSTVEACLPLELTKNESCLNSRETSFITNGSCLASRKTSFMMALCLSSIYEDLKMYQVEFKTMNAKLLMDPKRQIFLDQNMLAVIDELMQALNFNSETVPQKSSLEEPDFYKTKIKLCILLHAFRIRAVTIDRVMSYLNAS
- T1 sequence (looked up) 2: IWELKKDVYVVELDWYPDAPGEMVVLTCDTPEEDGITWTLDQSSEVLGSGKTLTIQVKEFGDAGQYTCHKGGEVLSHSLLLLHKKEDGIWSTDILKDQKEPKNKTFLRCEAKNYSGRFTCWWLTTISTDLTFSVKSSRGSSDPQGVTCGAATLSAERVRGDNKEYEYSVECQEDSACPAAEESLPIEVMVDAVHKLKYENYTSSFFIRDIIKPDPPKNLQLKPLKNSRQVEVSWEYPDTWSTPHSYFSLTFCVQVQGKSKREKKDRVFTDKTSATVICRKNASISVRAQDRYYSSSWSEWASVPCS
- Protocol Summary: SPR (BIAcore), IL-12 chip

Binder	Reading Unit	koff
C12 (scFv, V domains shown, scFv) VH: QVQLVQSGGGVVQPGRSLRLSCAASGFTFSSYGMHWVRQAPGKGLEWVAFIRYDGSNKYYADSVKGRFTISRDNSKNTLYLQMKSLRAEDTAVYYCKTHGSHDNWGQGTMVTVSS VL: SYVLTQPPSVSGTPGQRVTISCSGGRSNIGSNTVKWYQQLPGTAPKLLIYGNDQRPSGVPDRFSGSKSGTSASLAITGVQAEDEADYYCQSYDRGLRVQAPFGTGTKVTVL	s⁻¹	0.00585
C8 (scFv, V domains shown, scFv) VH: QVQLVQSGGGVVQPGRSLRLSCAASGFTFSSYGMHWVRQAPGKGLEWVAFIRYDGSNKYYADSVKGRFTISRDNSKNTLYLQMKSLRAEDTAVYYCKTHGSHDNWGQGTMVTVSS VL: SYVLTQPPSVSGTPGQRVTISCSGGRSNIGSNTVKWYQQLPGTAPKLLIYGNDQRPSGVPDRFSGSKSGTSASLAITGVQAEDEADYYCQSYDSGTSNLLPFGTGTKVTVL	s⁻¹	0.00536
103-8 & 2 (scFv, V domains shown, scFv) VH: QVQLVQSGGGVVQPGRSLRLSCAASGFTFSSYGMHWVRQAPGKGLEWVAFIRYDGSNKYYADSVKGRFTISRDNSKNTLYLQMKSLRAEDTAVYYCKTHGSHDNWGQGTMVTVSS VL: SYVLTQPPSVSGTPGQRVTISCSGGRSNIGSNTVKWYQQLPGTAPKLLIYGNDQRPSGVPDRFSGSKSGTSASLAITGVQAEDEADYYCQTYDKGFTGSSVFGTGTKVTVL	s⁻¹	0.00053
